# credit: patent US20240084003A1

system: T1, human CD22-ECD-His protein (human, UniProt P20273 20-687)
T1 construct: Made in house in HEK293E; also called hCD22-ECD-His; recombinant human CD22-ECD His protein; not shown: His tag
T1 sequence: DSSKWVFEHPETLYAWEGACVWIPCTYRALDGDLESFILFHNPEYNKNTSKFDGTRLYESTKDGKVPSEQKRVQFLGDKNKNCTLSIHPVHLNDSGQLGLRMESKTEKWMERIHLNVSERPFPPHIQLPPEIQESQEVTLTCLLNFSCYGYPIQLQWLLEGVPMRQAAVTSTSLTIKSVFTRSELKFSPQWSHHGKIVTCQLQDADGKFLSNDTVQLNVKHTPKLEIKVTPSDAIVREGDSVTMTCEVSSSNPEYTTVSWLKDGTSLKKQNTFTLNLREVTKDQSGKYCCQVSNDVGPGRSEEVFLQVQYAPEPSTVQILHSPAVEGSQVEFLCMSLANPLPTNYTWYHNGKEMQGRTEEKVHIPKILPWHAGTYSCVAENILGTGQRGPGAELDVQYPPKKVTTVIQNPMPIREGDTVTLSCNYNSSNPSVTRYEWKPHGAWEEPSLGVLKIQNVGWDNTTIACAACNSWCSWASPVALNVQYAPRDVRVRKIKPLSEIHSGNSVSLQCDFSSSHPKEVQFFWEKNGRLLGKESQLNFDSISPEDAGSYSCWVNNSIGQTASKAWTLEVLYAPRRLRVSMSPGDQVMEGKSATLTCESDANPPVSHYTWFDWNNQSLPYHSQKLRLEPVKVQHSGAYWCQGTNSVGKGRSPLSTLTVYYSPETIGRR
protocolSummary: ELISA, Ab 0.01 nM
Procedure: In order to detect the binding activity of CD22 human-murine chimeric antibodies to CD22 protein, the purified human CD22-ECD-His protein obtained in Example 2 was diluted with PBS to a final concentration of 2 μg/mL, and then added to 96-well ELISA plate at 100 μl/well. The plate was sealed with plastic film and incubated overnight at 4° C., the plate was washed 2 times with PBS the next day, and then a blocking solution [PBS+2% (w/w) BSA] was added for blocking at room temperature for 2 hours. […]
Recorded OD450 by entry

{"binder": "F2.343.16 (antibody, human IgG1, lambda, V domains shown, Human-murine chimeric IgG1, lambda) VH: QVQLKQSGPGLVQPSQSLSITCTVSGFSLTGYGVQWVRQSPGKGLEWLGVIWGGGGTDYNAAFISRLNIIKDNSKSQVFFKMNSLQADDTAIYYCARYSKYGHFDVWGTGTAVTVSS VL: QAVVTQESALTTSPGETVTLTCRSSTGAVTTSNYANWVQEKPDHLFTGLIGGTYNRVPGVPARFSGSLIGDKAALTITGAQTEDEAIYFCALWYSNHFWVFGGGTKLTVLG", "readingUnit": "OD450", "OD450": 1.29}
{"binder": "F1.62.10 (antibody, human IgG1, kappa, V domains shown, Human-murine chimeric IgG1, kappa) VH: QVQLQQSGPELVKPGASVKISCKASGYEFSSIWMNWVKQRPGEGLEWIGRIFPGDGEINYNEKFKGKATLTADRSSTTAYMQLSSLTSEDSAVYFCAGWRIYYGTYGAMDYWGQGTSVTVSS VL: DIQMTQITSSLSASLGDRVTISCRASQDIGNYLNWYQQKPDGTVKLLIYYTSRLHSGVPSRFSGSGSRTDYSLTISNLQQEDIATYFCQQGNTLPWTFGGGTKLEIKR", "readingUnit": "OD450", "OD450": 2.16}
